tested system: Insulin-like growth factor 2 receptor (IGF-1IR, cation-independent mannose-6-phosphate receptor, CI-MPR; hIGF-IIR) (Homo sapiens, UniProt P11717)
assay procedure: HTRF-based ternary complex inhibition assay for relative affinity of IGF-IIR ligands
reported conditions: competition with MTAC probe for His-tagged hIGF-IIR; biotinylated IgG1; apparent binding affinity; read-out: TCF INH (HTRF) IC50
pIC50: −log10 of the molar value.
measure name: pIC50

Known results for compounds:
compound | measure name | value
O=P(O)(O)CC[C@H]1OC(C#Cc2ccccc2)[C@@H](O)[C@@H](O)[C@@H]1O (stereo partly shown) [Compound A16] | pIC50 | > 5.00
CC#CCP(=O)(O)CC[C@H]1OC(Oc2ccc(OC)cc2)[C@@H](O)[C@@H](O)[C@@H]1O (stereo partly shown) [Compound A53] | pIC50 | 4.00 to 5.00
O=P(O)(O)CC[C@H]1O[C@H](Oc2ccc3c(c2)Cc2cc(O)ccc2-3)[C@@H](O)[C@@H](O)[C@@H]1O [Compound A22] | pIC50 | > 5.00

Look at this compound and give its reported pIC50. O=C(NS(=O)(=O)CC[C@H]1O[C@H](O)[C@@H](O)[C@@H](O)[C@@H]1O)c1ccccc1 [Compound A12]
3.52 to 4.00

Look at this compound and give its reported pIC50. COc1ccc(OC2O[C@H](CCP(=O)(O)CC3=CCCC3)[C@@H](O)[C@H](O)[C@@H]2O)cc1 (stereo partly shown) [Compound A78]
> 5.00

Look at this compound and give its reported pIC50. C#CCCCCNC(=O)Nc1ccc2c(c1)Cc1cc(O[C@H]3O[C@H](CCP(=O)(O)O)[C@@H](O)[C@H](O)[C@@H]3O)ccc1-2 [Compound A83]
> 5.00

Look at this compound and give its reported pIC50. COc1ccc(OC2O[C@H](CCP(=O)(O)Cc3ccccn3)[C@@H](O)[C@H](O)[C@@H]2O)cc1 (stereo partly shown) [Compound A50]
> 5.00
